Kindly supply the reported inhibition values for the records listed here.
ASSAYED SYSTEM: PIK3CA (human)
EXPERIMENT DESCRIPTION: Inhibition of Substrate Phosphorylation by PIK3CA
MEASUREMENT SETUP: hct 116,bxpc-3 pancreatic,mda-mb-468, concentration not given here
Numbers only, in %.

CCNC(=O)Nc1ccc2ncc(-c3ccc(OC(=O)OCCOC)c(OC)c3)nc2n1 | 90
CCNC(=O)Nc1ccc2ncc(Nc3ccc(C)c(NS(C)(=O)=O)c3)nc2n1 | 90
CCNC(=O)Nc1ccc2ncc(-c3ccc(OC(=O)OC)cc3)nc2n1 | 50
CCNC(=O)Nc1ccc2ncc(-c3ccc(OC(=O)OCCOC)cc3)nc2n1 | 100

// switching to the query compound
Query: Specify inhibition for CCNC(=O)Nc1ccc(-c2cnc3ccc(NC(=O)NCC)nc3n2)cc1 and stop.
Response: 70
